Readings of ddG of mutation (higher = less stable) for the listed variants
B1: Ribonuclease pancreatic, P61823 (parent)
chain: MALKSLVLLSLLVLVLLLVRVQPSLGKETAAAKFERQHMDSSTSAASSSNYCNQMMKSRNLTKDRCKPVNTFVHESLADVQAVCSQKNVACKNGQTNCYQSYSTMSITDCRETGSSKYPNCAYKTTQANKHIIVACEGNPYVPVHFDASV

# Variants of: B1
# assaySetup: Bos taurus; pH 4.2; 56.2 °C; Thermal; CD; Sodium acetate 0.01 M; NaCl 0.1 M; reversible: yes; structure 1RTB; whole UniProt chain shown

{"variantId": "P140G", "ddG of mutation (higher = less stable), kcal/mol": 2.8}
{"variantId": "P119A", "ddG of mutation (higher = less stable), kcal/mol": 2.7}
{"variantId": "P119A P140G", "ddG of mutation (higher = less stable), kcal/mol": 4.2}
{"variantId": "P119S", "ddG of mutation (higher = less stable), kcal/mol": 2.1}
{"variantId": "P140A", "ddG of mutation (higher = less stable), kcal/mol": 3.2}
